target: human cloned dopamine D4.2 receptors (Homo sapiens, UniProt P21917, DEL265-296); construct: expressed in transfected cells; host or cells: CHO cells (membranes); assay: Inhibition of the binding of [3H]YM-09151-2 to human dopamine D4 receptors; settings: [3H]YM-09151-2 0.06 nM, membranes of CHO cells; read-out: D4-bind. IC50
So basically, if IC50 comes in under 8 nM it's 1.0, and if it's 8 nM or more it's 0.0.

Completed entries (count: 4):
[[record]]
molecule = "O=C1CCc2ccccc2N1CCCCCN1CC=C(c2c[nH]c3ccc(F)cc23)CC1 [Compound 3c]"
label = 0.0

[[record]]
molecule = "O=C1CCc2ccccc2N1CCCCN1CCC(c2c[nH]c3ccc(F)cc23)CC1 [Compound 4]"
label = 1.0

[[record]]
molecule = "Fc1ccc2[nH]cc(C3=CCN(CCCCN4CCCc5ccccc54)CC3)c2c1 [Compound 9m]"
label = 0.0

[[record]]
molecule = "O=C1CCc2ccccc2N1CCCN1CCC(c2c[nH]c3ccc(Cl)cc23)CC1 [Compound 2c]"
label = 1.0


Report whether reported IC50 is lower than 8 nM (strictly) for Fc1ccc2[nH]cc(C3=CCN(CCCCCN4CCCc5ccccc54)CC3)c2c1 [Compound 9n] 0.0

Report whether reported IC50 is lower than 8 nM (strictly) for O=C1CCc2ccccc2N1CCCN1CC=C(c2c[nH]c3ccc(F)cc23)CC1 [Compound 3a] 1.0

Report whether reported IC50 is lower than 8 nM (strictly) for O=C1CCc2ccccc2N1CCCCCN1CCC(c2c[nH]c3ccc(F)cc23)CC1 [Compound 2b] 0.0

Report whether reported IC50 is lower than 8 nM (strictly) for Fc1ccc2[nH]cc(C3=CCN(CCCN4CCCc5ccccc54)CC3)c2c1 [Compound 9l] 1.0

Report whether reported IC50 is lower than 8 nM (strictly) for O=C1CCc2ccccc2N1CCCN1CCC(c2c[nH]c3ccc(F)cc23)CC1 [Compound 2a] 1.0

###

Target: human cloned dopamine D4.2 receptors (Homo sapiens, UniProt P21917, DEL265-296)
Construct: expressed in transfected cells; host or cells: CHO cells (membranes)
Sequence (P21917 with tags, fused parts or gaps DEL265-296): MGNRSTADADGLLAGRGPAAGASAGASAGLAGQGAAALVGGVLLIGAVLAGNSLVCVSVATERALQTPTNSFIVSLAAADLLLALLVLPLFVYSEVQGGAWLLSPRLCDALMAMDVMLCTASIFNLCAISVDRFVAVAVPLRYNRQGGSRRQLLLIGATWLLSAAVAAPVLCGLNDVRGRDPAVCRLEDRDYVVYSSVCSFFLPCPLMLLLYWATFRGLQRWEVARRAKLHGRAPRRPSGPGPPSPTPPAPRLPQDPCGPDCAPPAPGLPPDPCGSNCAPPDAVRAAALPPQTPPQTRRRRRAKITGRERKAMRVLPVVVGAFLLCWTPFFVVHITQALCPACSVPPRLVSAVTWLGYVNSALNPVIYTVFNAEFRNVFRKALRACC
Experiment: Inhibition of the binding of [3H]YM-09151-2 to human dopamine D4 receptors
Conditions: at 50 nM compound; [3H]YM-09151-2 0.06 nM, membranes of CHO cells; read-out: D4-bind. % inhibition of binding at 50 nM
Let's look at some molecules and their measured inhibition at 0.05 µM.
Please give a number only; it is taken to be in %.

# annotated cases, reported inhibition at 0.05 µM shown
[[record]]
molecule = "O=C(CCCCCN1CCC(c2c[nH]c3cccc(Cl)c23)CC1)N1CCc2ccccc2C1 [Compound 10f]"
target_or_test_system = "human cloned dopamine D4.2 receptors (Homo sapiens, UniProt P21917, DEL265-296)"
endpoint_unit = "%"
observed_value = 17

[[record]]
molecule = "O=C(CCCN1CCC(c2c[nH]c3cccc(Cl)c23)CC1)N1CCc2ccccc2C1 [Compound 10d]"
target_or_test_system = "human cloned dopamine D4.2 receptors (Homo sapiens, UniProt P21917, DEL265-296)"
endpoint_unit = "%"
observed_value = 86

[[record]]
molecule = "O=C(CCCN1CCC(c2c[nH]c3c(Cl)cccc23)CC1)N1CCc2ccccc2C1 [Compound 10k]"
target_or_test_system = "human cloned dopamine D4.2 receptors (Homo sapiens, UniProt P21917, DEL265-296)"
endpoint_unit = "%"
observed_value = 95

[[record]]
molecule = "O=C(CCCCN1CCC(c2c[nH]c3ccc(F)cc23)CC1)N1CCc2ccccc2C1 [Compound 10g]"
target_or_test_system = "human cloned dopamine D4.2 receptors (Homo sapiens, UniProt P21917, DEL265-296)"
endpoint_unit = "%"
observed_value = 65

[[record]]
molecule = "O=C1CCc2ccccc2N1CCCCN1CCC(c2c[nH]c3c(Cl)cccc23)CC1"
target_or_test_system = "human cloned dopamine D4.2 receptors (Homo sapiens, UniProt P21917, DEL265-296)"
endpoint_unit = "%"
observed_value = 78

[[record]]
molecule = "O=C(CCN1CCC(c2c[nH]c3cccc(F)c23)CC1)N1CCc2ccccc2C1 [Compound 10a]"
target_or_test_system = "human cloned dopamine D4.2 receptors (Homo sapiens, UniProt P21917, DEL265-296)"
endpoint_unit = "%"
observed_value = 93

[[record]]
molecule = "O=C(CCCCCN1CCC(c2c[nH]c3cccc(F)c23)CC1)N1CCc2ccccc2C1 [Compound 10c]"
target_or_test_system = "human cloned dopamine D4.2 receptors (Homo sapiens, UniProt P21917, DEL265-296)"
endpoint_unit = "%"
observed_value = 21


So for O=C(CCCCN1CCC(c2c[nH]c3cccc(Cl)c23)CC1)N1CCc2ccccc2C1 [Compound 10e] , the logged inhibition at 0.05 µM turned out to be 25

###

Let's look at some compounds and their measured inhibition at 0.05 µM.
Molecular target: human cloned dopamine D4.2 receptors (Homo sapiens, UniProt P21917, DEL265-296)
Construct: expressed in transfected cells; host or cells: CHO cells (membranes)
Sequence (P21917 with tags, fused parts or gaps DEL265-296): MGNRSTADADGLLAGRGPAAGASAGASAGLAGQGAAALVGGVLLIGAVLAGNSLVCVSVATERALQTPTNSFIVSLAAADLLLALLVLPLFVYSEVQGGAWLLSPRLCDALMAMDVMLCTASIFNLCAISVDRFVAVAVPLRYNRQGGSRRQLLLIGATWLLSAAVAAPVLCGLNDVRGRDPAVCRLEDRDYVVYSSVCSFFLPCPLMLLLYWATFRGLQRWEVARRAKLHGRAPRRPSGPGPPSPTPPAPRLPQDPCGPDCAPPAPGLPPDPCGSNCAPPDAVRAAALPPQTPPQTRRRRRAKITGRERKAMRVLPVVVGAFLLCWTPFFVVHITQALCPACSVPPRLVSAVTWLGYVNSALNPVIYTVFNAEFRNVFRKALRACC
Experiment: Inhibition of the binding of [3H]YM-09151-2 to human dopamine D4 receptors
Conditions: at 50 nM compound; [3H]YM-09151-2 0.06 nM, membranes of CHO cells; read-out: D4-bind. % inhibition of binding at 50 nM
Please give a number only; it is taken to be in %.

[[record]]
compound = "O=C1CCc2ccccc2N1CCN1CCC(c2c[nH]c3ccc(F)cc23)CC1"
endpoint_unit = "%"
observed_value = 92


So for O=C(CCCCCN1CCC(c2c[nH]c3c(Cl)cccc23)CC1)N1CCc2ccccc2C1 [Compound 10m] , the logged inhibition at 0.05 µM turned out to be 69

So for O=C(CCN1CCC(c2c[nH]c3cc(Cl)ccc23)CC1)N1CCc2ccccc2C1 [Compound 10i] , the logged inhibition at 0.05 µM turned out to be 94

###

Target: human cloned dopamine D4.2 receptors (Homo sapiens, UniProt P21917, DEL265-296)
Sequence (P21917 with tags, fused parts or gaps DEL265-296): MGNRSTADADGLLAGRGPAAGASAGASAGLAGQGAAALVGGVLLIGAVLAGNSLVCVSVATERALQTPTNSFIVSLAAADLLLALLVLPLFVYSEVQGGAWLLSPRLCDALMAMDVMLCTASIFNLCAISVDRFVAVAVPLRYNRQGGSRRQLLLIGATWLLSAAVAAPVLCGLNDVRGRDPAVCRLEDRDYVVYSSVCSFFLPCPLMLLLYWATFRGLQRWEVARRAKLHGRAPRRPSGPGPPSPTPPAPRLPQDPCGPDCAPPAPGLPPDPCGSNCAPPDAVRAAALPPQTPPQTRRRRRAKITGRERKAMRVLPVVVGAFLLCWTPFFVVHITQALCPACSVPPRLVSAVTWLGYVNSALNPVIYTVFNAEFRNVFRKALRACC
Assay: Inhibition of the binding of [3H]YM-09151-2 to human dopamine D4 receptors
Conditions: [3H]YM-09151-2 0.06 nM, membranes of CHO cells; read-out: D4-bind. IC50
Measurement Label: IC50 (nM)
Please give a number only; it is taken to be in nM.

# annotated cases, reported IC50 shown
[[record]]
substance_smiles = "O=C1CCc2ccccc2N1CCCCN1CCC(c2c[nH]c3ccc(Cl)cc23)CC1"
measurement_label = "IC50"
observed_value = 8

[[record]]
substance_smiles = "O=C1COc2ccccc2N1CCCCN1CCC(c2c[nH]c3ccc(F)cc23)CC1"
measurement_label = "IC50"
observed_value = 7.5

[[record]]
substance_smiles = "O=C1CCc2ccccc2N1CCCCCN1CCC(c2c[nH]c3ccc(Cl)cc23)CC1"
measurement_label = "IC50"
observed_value = 12

[[record]]
substance_smiles = "O=C1COc2ccccc2N1CCCCN1CCC(c2c[nH]c3ccc(Cl)cc23)CC1"
measurement_label = "IC50"
observed_value = 10


So for O=C1CCc2ccccc2N1CCCCN1CC=C(c2c[nH]c3ccc(F)cc23)CC1 , the logged IC50 turned out to be 5
